- tested on: human Y2 receptor (human) (UniProt P49146)
- Sequence (P49146 whole entry): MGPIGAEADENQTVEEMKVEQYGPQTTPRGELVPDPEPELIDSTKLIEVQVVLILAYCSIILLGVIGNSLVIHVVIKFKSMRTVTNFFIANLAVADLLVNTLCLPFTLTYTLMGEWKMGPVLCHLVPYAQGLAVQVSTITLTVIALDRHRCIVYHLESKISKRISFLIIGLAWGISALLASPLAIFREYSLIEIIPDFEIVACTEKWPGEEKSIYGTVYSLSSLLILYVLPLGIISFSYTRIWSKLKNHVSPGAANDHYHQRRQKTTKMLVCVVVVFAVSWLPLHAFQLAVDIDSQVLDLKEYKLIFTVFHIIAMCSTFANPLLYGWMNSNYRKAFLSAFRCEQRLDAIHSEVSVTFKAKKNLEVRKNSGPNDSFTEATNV
- procedure details: cell-based or functional assay
Non-standard residues stand in square brackets, D forms with d. 4Pal = N[C@@H](Cc1ccncc1)C(=O)O; Cha = N[C@@H](CC1CCCCC1)C(=O)O; Aipe = 3-aminobutanoic acid; Iva = CC[C@](C)(N)C(=O)O; Nle = CCCC[C@H](N)C(=O)O; Nva = CCC[C@H](N)C(=O)O; Aib = CC(C)(N)C(=O)O
The label 1.0 is reserved for GBA EC50 Ratio ([35S]GTPγS binding) (EC50 compound/EC50 PYY(3-36)) strictly under 3; 0.0 covers values equal to or above it.

{"columns": ["binder", "class name"],
 "data": [
  ["Ac-S[dP][Iva][4Pal][Cha][Aib]NK[Aib]TRQR[Cha]-NH2 (SMILES CC[C@](C)(NC(=O)[C@H]1CCCN1C(=O)[C@H](CO)NC(C)=O)C(=O)N[C@@H](Cc1ccncc1)C(=O)N[C@@H](CC1CCCCC1)C(=O)NC(C)(C)C(=O)N[C@@H](CC(N)=O)C(=O)N[C@@H](CCCCN)C(=O)NC(C)(C)C(=O)N[C@H](C(=O)N[C@@H](CCCNC(=N)N)C(=O)N[C@@H](CCC(N)=O)C(=O)N[C@@H](CCCNC(=N)N)C(=O)N[C@@H](CC1CCCCC1)C(N)=O)[C@@H](C)O) [Ac-[D-Pro24, Iva25, Pya(4)26, Cha27,36, Aib28,31, Lys30]-PYY(23-36)]", 1.0],
  ["Ac-S[dP][Aib]H[Cha][Aib]NK[Aib]TRQR[Cha]-NH2 (SMILES CC(=O)N[C@@H](CO)C(=O)N1CCC[C@@H]1C(=O)NC(C)(C)C(=O)N[C@@H](Cc1c[nH]cn1)C(=O)N[C@@H](CC1CCCCC1)C(=O)NC(C)(C)C(=O)N[C@@H](CC(N)=O)C(=O)N[C@@H](CCCCN)C(=O)NC(C)(C)C(=O)N[C@H](C(=O)N[C@@H](CCCNC(=N)N)C(=O)N[C@@H](CCC(N)=O)C(=O)N[C@@H](CCCNC(=N)N)C(=O)N[C@@H](CC1CCCCC1)C(N)=O)[C@@H](C)O) [Ac-[D-Pro24, Aib25,28,31, Cha27,36, Lys30]-PYY(23-36)]", 0.0],
  ["Ac-AE[dP]R[4Pal][Cha][Aib]NK[Aib]TRQR[Cha]-NH2 (SMILES CC(=O)N[C@@H](C)C(=O)N[C@@H](CCC(=O)O)C(=O)N1CCC[C@@H]1C(=O)N[C@@H](CCCNC(=N)N)C(=O)N[C@@H](Cc1ccncc1)C(=O)N[C@@H](CC1CCCCC1)C(=O)NC(C)(C)C(=O)N[C@@H](CC(N)=O)C(=O)N[C@@H](CCCCN)C(=O)NC(C)(C)C(=O)N[C@H](C(=O)N[C@@H](CCCNC(=N)N)C(=O)N[C@@H](CCC(N)=O)C(=O)N[C@@H](CCCNC(=N)N)C(=O)N[C@@H](CC1CCCCC1)C(N)=O)[C@@H](C)O) [Ac-[Glu23, D-Pro24, Pya(4)26, Cha27,36, Aib28,31, Lys30]-PYY(22-36)]", 0.0],
  ["Ac-S[Aipe]R[4Pal][Cha][Aib]NK[Aib]TRQR[Cha]-NH2 [Ac-[Aipe24, Pya(4)26, Cha27,36, Aib28,31, Lys30]-PYY(23-36)]", 1.0],
  ["Ac-S[dP][Nle][4Pal][Cha][Aib]NK[Aib]TRQR[Cha]-NH2 (SMILES CCCC[C@H](NC(=O)[C@H]1CCCN1C(=O)[C@H](CO)NC(C)=O)C(=O)N[C@@H](Cc1ccncc1)C(=O)N[C@@H](CC1CCCCC1)C(=O)NC(C)(C)C(=O)N[C@@H](CC(N)=O)C(=O)N[C@@H](CCCCN)C(=O)NC(C)(C)C(=O)N[C@H](C(=O)N[C@@H](CCCNC(=N)N)C(=O)N[C@@H](CCC(N)=O)C(=O)N[C@@H](CCCNC(=N)N)C(=O)N[C@@H](CC1CCCCC1)C(N)=O)[C@@H](C)O) [Ac-[D-Pro24, Nle25, Pya(4)26, Cha27,36, Aib28,31, Lys30]-PYY(23-36)]", 1.0],
  ["Ac-E[dP][Nle][4Pal][Cha][Aib]NK[Aib]TRQR[Cha]-NH2 (SMILES CCCC[C@H](NC(=O)[C@H]1CCCN1C(=O)[C@H](CCC(=O)O)NC(C)=O)C(=O)N[C@@H](Cc1ccncc1)C(=O)N[C@@H](CC1CCCCC1)C(=O)NC(C)(C)C(=O)N[C@@H](CC(N)=O)C(=O)N[C@@H](CCCCN)C(=O)NC(C)(C)C(=O)N[C@H](C(=O)N[C@@H](CCCNC(=N)N)C(=O)N[C@@H](CCC(N)=O)C(=O)N[C@@H](CCCNC(=N)N)C(=O)N[C@@H](CC1CCCCC1)C(N)=O)[C@@H](C)O) [Ac-[Glu23, D-Pro24, Nle25, Pya(4)26, Cha27,36, Aib28,31, Lys30]-PYY(23-36)]", 0.0],
  ["Ac-S[dP][Iva][4Pal][Cha][Nva]NK[Aib]TRQR[Cha]-NH2 (SMILES CCC[C@H](NC(=O)[C@H](CC1CCCCC1)NC(=O)[C@H](Cc1ccncc1)NC(=O)[C@](C)(CC)NC(=O)[C@H]1CCCN1C(=O)[C@H](CO)NC(C)=O)C(=O)N[C@@H](CC(N)=O)C(=O)N[C@@H](CCCCN)C(=O)NC(C)(C)C(=O)N[C@H](C(=O)N[C@@H](CCCNC(=N)N)C(=O)N[C@@H](CCC(N)=O)C(=O)N[C@@H](CCCNC(=N)N)C(=O)N[C@@H](CC1CCCCC1)C(N)=O)[C@@H](C)O) [Ac-[D-Pro24, Iva25, Pya(4)26, Cha27,36, Nva28, Aib31, Lys30]-PYY(23-36)]", 1.0]
]}

The measurements presented in this section are drawn from patent US20120172293A1.
